Each item that follows carries a reported Antigen Bound (RU).
Target: T1, hFGFR2b.mmh (human)
T1 construct: also called Human FGFR2b with C-terminal myc-myc-hexahistidine tag
T1 chain: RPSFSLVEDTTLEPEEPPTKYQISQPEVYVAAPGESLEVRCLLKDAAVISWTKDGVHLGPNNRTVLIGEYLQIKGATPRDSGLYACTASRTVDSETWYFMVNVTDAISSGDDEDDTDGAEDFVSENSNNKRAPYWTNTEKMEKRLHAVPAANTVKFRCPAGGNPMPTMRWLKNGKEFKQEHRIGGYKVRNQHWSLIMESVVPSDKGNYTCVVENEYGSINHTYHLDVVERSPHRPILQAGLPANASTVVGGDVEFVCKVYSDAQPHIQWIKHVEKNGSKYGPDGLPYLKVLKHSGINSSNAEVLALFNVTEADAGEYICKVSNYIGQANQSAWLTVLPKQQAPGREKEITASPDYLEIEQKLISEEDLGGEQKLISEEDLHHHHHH
Assay: SPR (Biacore), ADC captured by anti-human Fc, hFGFR2b-MMH as analyte, 25 C
The figure you give is taken to be in RU; do not add the unit.

Some binders with recorded Antigen Bound (RU):
mAb2-maytansinoid 1ALP (antibody, V domains shown, maytansinoid 1ALP (mc-VC-PAB-NMe-C3-May) linker-payload conjugated; residues not stated in Example 5; DAR 1.9 per antibody, it is written on the heavy chain only for want of a better place; also called FGFR2 maytansinoid ADC) VH: QVQLVESGGGVVQPGKSLRLSCAASGFTFSNYGMHWVRQTPVKGLEWVTLIWYDGSNKYYTDSVKGRFTISRDNSKNTLYLQMNSLRSEDTAVYYCAREGNWNYGHAFDIWGQGTMVTVSS VL: DIQMTQSPSTLSASVGDRVTITCRASQNIGNWLAWYQQKPGKAPNLLIYKASTLESGVPSRFSGSGSGTEFTLTISSLQPDDFATYNCQQYNSYSPTFGQGTKLEIKR; 31.3
mAb1-maytansinoid 1ALP (antibody, V domains shown, maytansinoid 1ALP (mc-VC-PAB-NMe-C3-May) linker-payload conjugated; residues not stated in Example 5; DAR 2.5 per antibody, it is written on the heavy chain only for want of a better place) VH: QVQLVESGGGVVQPGRSLRLSCAASGFTFSSYGMHWVRQAPGKGLEWVAVIWYDGSNKYYADSVKGRFTISRDNSKNTLYLQMNSLRAEDTAVYYCAREESSASGVDYWGQGTLVTVSS VL: EIVLTQSPGTLSLSPGERATLSCRASQSVSTRYLAWYQQKRGQAPRLLIYGASSRATGIPDRFSGSGSGTDFTLTISRLEPEDFAVYYCQEYGSSSITFGQGTRLEIKR; 42.1

*Q* Looking for the measured Antigen Bound (RU) of mAb2-tubulysin 1ALP (antibody, V domains shown, deglycosylated; Q295 carries azido-PEG3-amine clicked to Tubulysin 1A-LP; DAR 2.1 per antibody, also called Anti FGFR2 mAb2-PEG3-N3-Tubulysin 1A-LP) VH: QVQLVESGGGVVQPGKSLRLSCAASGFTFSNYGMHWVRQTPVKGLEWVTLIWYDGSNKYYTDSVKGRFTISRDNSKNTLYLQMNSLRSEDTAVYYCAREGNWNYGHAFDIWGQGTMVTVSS VL: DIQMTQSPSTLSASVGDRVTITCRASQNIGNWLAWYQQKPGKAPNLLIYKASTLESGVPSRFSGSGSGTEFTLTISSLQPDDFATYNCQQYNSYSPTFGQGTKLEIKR , can you help?
*A* 32.7

*Q* How about mAb1-tubulysin 1ALP (antibody, human IgG4 S228P, kappa, V domains shown, deglycosylated; Q295 carries azido-PEG3-amine clicked to Tubulysin 1A-LP; DAR 2.1 per antibody, also called Anti FGFR2 mAb1-PEG3-N3-Tubulysin 1A-LP) VH: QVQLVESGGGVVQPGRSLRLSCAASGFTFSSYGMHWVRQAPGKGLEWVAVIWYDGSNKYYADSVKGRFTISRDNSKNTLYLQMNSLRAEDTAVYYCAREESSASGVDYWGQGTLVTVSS VL: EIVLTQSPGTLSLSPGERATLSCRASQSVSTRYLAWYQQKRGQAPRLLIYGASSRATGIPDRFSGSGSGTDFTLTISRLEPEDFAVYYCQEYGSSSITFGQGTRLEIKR ?
*A* 36.4
